The reported numbers originate from the supplement of paper PMC6757056.

B1: library; a variant is named by its letters at N, in order (parent)
chain: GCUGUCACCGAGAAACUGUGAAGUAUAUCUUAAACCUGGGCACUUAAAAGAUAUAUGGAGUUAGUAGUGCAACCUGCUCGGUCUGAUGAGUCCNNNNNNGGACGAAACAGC

Variants of: B1
Assay summary: normalized RNA/DNA level with ligand (relative to sTRSVctl = 100) (log10 (% of sTRSVctl)); HEK293T; ligand: cyclic di-GMP (c-di-GMP-II aptamer); ligand concentration (+) RNA-Seq: 1 mM; higher = less ribozyme self-cleavage, higher mRNA level
Protocol conditions: reporter: mCherry (pCS4076), ligand present: yes
Quantity kind: normalized RNA/DNA level with ligand (log10)
Answer with a bare number; do not write a unit.

Input line: Dear colleague, I am looking for the recorded normalized RNA/DNA level with ligand (log10) of the following variant: "GCUGUCACCGAGAAACUGUGAAGUAUAUCUUAAACCUGGGCACUUAAAAGAUAUAUGGAGUUAGUAGUGCAACCUGCUCGGUCUGAUGAGUCCCAAUCGGGACGAAACAGC"
Output line: 1.89

Input line: Dear colleague, I am looking for the recorded normalized RNA/DNA level with ligand (log10) of the following variant: "GCUGUCACCGAGAAACUGUGAAGUAUAUCUUAAACCUGGGCACUUAAAAGAUAUAUGGAGUUAGUAGUGCAACCUGCUCGGUCUGAUGAGUCCGACGCAGGACGAAACAGC"
Output line: 1.88

Input line: Dear colleague, I am looking for the recorded normalized RNA/DNA level with ligand (log10) of the following variant: "GCUGUCACCGAGAAACUGUGAAGUAUAUCUUAAACCUGGGCACUUAAAAGAUAUAUGGAGUUAGUAGUGCAACCUGCUCGGUCUGAUGAGUCCCUGAGCGGACGAAACAGC"
Output line: 1.87

Input line: Dear colleague, I am looking for the recorded normalized RNA/DNA level with ligand (log10) of the following variant: "GCUGUCACCGAGAAACUGUGAAGUAUAUCUUAAACCUGGGCACUUAAAAGAUAUAUGGAGUUAGUAGUGCAACCUGCUCGGUCUGAUGAGUCCCUAGAUGGACGAAACAGC"
Output line: 1.79

Input line: Dear colleague, I am looking for the recorded normalized RNA/DNA level with ligand (log10) of the following variant: "GCUGUCACCGAGAAACUGUGAAGUAUAUCUUAAACCUGGGCACUUAAAAGAUAUAUGGAGUUAGUAGUGCAACCUGCUCGGUCUGAUGAGUCCAUGAGCGGACGAAACAGC"
Output line: 1.8

Input line: Dear colleague, I am looking for the recorded normalized RNA/DNA level with ligand (log10) of the following variant: "GCUGUCACCGAGAAACUGUGAAGUAUAUCUUAAACCUGGGCACUUAAAAGAUAUAUGGAGUUAGUAGUGCAACCUGCUCGGUCUGAUGAGUCCACUAGGGGACGAAACAGC"
Output line: 1.7

Input line: Dear colleague, I am looking for the recorded normalized RNA/DNA level with ligand (log10) of the following variant: "GCUGUCACCGAGAAACUGUGAAGUAUAUCUUAAACCUGGGCACUUAAAAGAUAUAUGGAGUUAGUAGUGCAACCUGCUCGGUCUGAUGAGUCCGACCAAGGACGAAACAGC"
Output line: 1.71

Input line: Dear colleague, I am looking for the recorded normalized RNA/DNA level with ligand (log10) of the following variant: "GCUGUCACCGAGAAACUGUGAAGUAUAUCUUAAACCUGGGCACUUAAAAGAUAUAUGGAGUUAGUAGUGCAACCUGCUCGGUCUGAUGAGUCCCCAGGUGGACGAAACAGC"
Output line: 1.82

Input line: Dear colleague, I am looking for the recorded normalized RNA/DNA level with ligand (log10) of the following variant: "GCUGUCACCGAGAAACUGUGAAGUAUAUCUUAAACCUGGGCACUUAAAAGAUAUAUGGAGUUAGUAGUGCAACCUGCUCGGUCUGAUGAGUCCAUUUAGGGACGAAACAGC"
Output line: 1.77

Input line: Dear colleague, I am looking for the recorded normalized RNA/DNA level with ligand (log10) of the following variant: "GCUGUCACCGAGAAACUGUGAAGUAUAUCUUAAACCUGGGCACUUAAAAGAUAUAUGGAGUUAGUAGUGCAACCUGCUCGGUCUGAUGAGUCCCGACUGGGACGAAACAGC"
Output line: 1.83

Input line: Dear colleague, I am looking for the recorded normalized RNA/DNA level with ligand (log10) of the following variant: "GCUGUCACCGAGAAACUGUGAAGUAUAUCUUAAACCUGGGCACUUAAAAGAUAUAUGGAGUUAGUAGUGCAACCUGCUCGGUCUGAUGAGUCCACAUGUGGACGAAACAGC"
Output line: 1.69

Input line: Dear colleague, I am looking for the recorded normalized RNA/DNA level with ligand (log10) of the following variant: "GCUGUCACCGAGAAACUGUGAAGUAUAUCUUAAACCUGGGCACUUAAAAGAUAUAUGGAGUUAGUAGUGCAACCUGCUCGGUCUGAUGAGUCCGCUGGUGGACGAAACAGC"
Output line: 1.76

Input line: Dear colleague, I am looking for the recorded normalized RNA/DNA level with ligand (log10) of the following variant: "GCUGUCACCGAGAAACUGUGAAGUAUAUCUUAAACCUGGGCACUUAAAAGAUAUAUGGAGUUAGUAGUGCAACCUGCUCGGUCUGAUGAGUCCAGAGACGGACGAAACAGC"
Output line: 1.69

Input line: Dear colleague, I am looking for the recorded normalized RNA/DNA level with ligand (log10) of the following variant: "GCUGUCACCGAGAAACUGUGAAGUAUAUCUUAAACCUGGGCACUUAAAAGAUAUAUGGAGUUAGUAGUGCAACCUGCUCGGUCUGAUGAGUCCUUGCCAGGACGAAACAGC"
Output line: 1.82

Input line: Dear colleague, I am looking for the recorded normalized RNA/DNA level with ligand (log10) of the following variant: "GCUGUCACCGAGAAACUGUGAAGUAUAUCUUAAACCUGGGCACUUAAAAGAUAUAUGGAGUUAGUAGUGCAACCUGCUCGGUCUGAUGAGUCCGAAUAUGGACGAAACAGC"
Output line: 1.79

Input line: Dear colleague, I am looking for the recorded normalized RNA/DNA level with ligand (log10) of the following variant: "GCUGUCACCGAGAAACUGUGAAGUAUAUCUUAAACCUGGGCACUUAAAAGAUAUAUGGAGUUAGUAGUGCAACCUGCUCGGUCUGAUGAGUCCCUGCUAGGACGAAACAGC"
Output line: 1.57

Input line: Dear colleague, I am looking for the recorded normalized RNA/DNA level with ligand (log10) of the following variant: "GCUGUCACCGAGAAACUGUGAAGUAUAUCUUAAACCUGGGCACUUAAAAGAUAUAUGGAGUUAGUAGUGCAACCUGCUCGGUCUGAUGAGUCCCCGCAAGGACGAAACAGC"
Output line: 1.68

Input line: Dear colleague, I am looking for the recorded normalized RNA/DNA level with ligand (log10) of the following variant: "GCUGUCACCGAGAAACUGUGAAGUAUAUCUUAAACCUGGGCACUUAAAAGAUAUAUGGAGUUAGUAGUGCAACCUGCUCGGUCUGAUGAGUCCCCUCACGGACGAAACAGC"
Output line: 1.85

Input line: Dear colleague, I am looking for the recorded normalized RNA/DNA level with ligand (log10) of the following variant: "GCUGUCACCGAGAAACUGUGAAGUAUAUCUUAAACCUGGGCACUUAAAAGAUAUAUGGAGUUAGUAGUGCAACCUGCUCGGUCUGAUGAGUCCAUCACCGGACGAAACAGC"
Output line: 1.87

Input line: Dear colleague, I am looking for the recorded normalized RNA/DNA level with ligand (log10) of the following variant: "GCUGUCACCGAGAAACUGUGAAGUAUAUCUUAAACCUGGGCACUUAAAAGAUAUAUGGAGUUAGUAGUGCAACCUGCUCGGUCUGAUGAGUCCUAGGGAGGACGAAACAGC"
Output line: 1.68

Input line: Dear colleague, I am looking for the recorded normalized RNA/DNA level with ligand (log10) of the following variant: "GCUGUCACCGAGAAACUGUGAAGUAUAUCUUAAACCUGGGCACUUAAAAGAUAUAUGGAGUUAGUAGUGCAACCUGCUCGGUCUGAUGAGUCCUAGUGAGGACGAAACAGC"
Output line: 1.77

Input line: Dear colleague, I am looking for the recorded normalized RNA/DNA level with ligand (log10) of the following variant: "GCUGUCACCGAGAAACUGUGAAGUAUAUCUUAAACCUGGGCACUUAAAAGAUAUAUGGAGUUAGUAGUGCAACCUGCUCGGUCUGAUGAGUCCUUGUGAGGACGAAACAGC"
Output line: 1.79
